target: CD16a-V158 (FcgRIIIa-V158) (Homo sapiens, UniProt P08637, F176V)
Sequence (P08637 17-208 F176V limits assumed): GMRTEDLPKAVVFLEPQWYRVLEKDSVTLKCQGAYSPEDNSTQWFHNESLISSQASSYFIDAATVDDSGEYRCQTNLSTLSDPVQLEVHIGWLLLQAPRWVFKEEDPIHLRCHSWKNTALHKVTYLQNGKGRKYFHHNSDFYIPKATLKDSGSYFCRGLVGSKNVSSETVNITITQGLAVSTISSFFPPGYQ
protocol_text: SPR, antibody binding to anti-his Fab captured FcgR-his (% Rmax)
assay_setup: 1 μM antibody
# maps each entry to its % Rmax hCD16a-V158
Report the figure in % without appending any unit label.

molecule: mAb13-IgG2.5 (protein, left off: another chain or arm of the molecule) constant: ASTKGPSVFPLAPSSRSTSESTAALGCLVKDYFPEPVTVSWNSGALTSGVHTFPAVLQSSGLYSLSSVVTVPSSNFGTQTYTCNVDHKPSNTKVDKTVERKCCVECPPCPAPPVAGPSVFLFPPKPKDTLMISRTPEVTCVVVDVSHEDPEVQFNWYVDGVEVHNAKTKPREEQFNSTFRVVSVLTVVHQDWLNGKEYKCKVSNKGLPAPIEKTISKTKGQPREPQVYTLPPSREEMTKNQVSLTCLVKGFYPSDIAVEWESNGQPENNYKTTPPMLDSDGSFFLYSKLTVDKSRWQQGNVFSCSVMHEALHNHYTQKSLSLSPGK
recorded_value: 0

Then there is this molecule:
So, mAb7-IgG2.3G1-AY-V27 (protein, left off: another chain or arm of the molecule) constant: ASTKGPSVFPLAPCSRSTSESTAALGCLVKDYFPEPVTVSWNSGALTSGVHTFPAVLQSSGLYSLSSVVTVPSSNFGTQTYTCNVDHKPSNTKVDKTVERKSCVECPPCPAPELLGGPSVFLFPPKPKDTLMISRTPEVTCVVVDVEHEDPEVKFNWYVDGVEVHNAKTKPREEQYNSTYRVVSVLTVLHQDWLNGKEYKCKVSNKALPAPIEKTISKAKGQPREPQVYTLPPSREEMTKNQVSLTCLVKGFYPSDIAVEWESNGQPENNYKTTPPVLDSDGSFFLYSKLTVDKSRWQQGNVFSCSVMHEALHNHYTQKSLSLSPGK ? Its % Rmax hCD16a-V158 was 26
